# MEASURED_TARGET: human Nav1.7 (Homo sapiens)
# Sequence (Q92913 1-192 partner limits assumed): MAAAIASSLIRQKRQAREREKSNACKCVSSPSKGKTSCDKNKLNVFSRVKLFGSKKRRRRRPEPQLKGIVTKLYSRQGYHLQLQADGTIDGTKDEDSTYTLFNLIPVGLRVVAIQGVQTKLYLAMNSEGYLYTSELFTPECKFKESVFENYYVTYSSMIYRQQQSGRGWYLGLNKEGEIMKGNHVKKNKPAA
# Sequence (Q15858 1-1977 isoform Q15858-3): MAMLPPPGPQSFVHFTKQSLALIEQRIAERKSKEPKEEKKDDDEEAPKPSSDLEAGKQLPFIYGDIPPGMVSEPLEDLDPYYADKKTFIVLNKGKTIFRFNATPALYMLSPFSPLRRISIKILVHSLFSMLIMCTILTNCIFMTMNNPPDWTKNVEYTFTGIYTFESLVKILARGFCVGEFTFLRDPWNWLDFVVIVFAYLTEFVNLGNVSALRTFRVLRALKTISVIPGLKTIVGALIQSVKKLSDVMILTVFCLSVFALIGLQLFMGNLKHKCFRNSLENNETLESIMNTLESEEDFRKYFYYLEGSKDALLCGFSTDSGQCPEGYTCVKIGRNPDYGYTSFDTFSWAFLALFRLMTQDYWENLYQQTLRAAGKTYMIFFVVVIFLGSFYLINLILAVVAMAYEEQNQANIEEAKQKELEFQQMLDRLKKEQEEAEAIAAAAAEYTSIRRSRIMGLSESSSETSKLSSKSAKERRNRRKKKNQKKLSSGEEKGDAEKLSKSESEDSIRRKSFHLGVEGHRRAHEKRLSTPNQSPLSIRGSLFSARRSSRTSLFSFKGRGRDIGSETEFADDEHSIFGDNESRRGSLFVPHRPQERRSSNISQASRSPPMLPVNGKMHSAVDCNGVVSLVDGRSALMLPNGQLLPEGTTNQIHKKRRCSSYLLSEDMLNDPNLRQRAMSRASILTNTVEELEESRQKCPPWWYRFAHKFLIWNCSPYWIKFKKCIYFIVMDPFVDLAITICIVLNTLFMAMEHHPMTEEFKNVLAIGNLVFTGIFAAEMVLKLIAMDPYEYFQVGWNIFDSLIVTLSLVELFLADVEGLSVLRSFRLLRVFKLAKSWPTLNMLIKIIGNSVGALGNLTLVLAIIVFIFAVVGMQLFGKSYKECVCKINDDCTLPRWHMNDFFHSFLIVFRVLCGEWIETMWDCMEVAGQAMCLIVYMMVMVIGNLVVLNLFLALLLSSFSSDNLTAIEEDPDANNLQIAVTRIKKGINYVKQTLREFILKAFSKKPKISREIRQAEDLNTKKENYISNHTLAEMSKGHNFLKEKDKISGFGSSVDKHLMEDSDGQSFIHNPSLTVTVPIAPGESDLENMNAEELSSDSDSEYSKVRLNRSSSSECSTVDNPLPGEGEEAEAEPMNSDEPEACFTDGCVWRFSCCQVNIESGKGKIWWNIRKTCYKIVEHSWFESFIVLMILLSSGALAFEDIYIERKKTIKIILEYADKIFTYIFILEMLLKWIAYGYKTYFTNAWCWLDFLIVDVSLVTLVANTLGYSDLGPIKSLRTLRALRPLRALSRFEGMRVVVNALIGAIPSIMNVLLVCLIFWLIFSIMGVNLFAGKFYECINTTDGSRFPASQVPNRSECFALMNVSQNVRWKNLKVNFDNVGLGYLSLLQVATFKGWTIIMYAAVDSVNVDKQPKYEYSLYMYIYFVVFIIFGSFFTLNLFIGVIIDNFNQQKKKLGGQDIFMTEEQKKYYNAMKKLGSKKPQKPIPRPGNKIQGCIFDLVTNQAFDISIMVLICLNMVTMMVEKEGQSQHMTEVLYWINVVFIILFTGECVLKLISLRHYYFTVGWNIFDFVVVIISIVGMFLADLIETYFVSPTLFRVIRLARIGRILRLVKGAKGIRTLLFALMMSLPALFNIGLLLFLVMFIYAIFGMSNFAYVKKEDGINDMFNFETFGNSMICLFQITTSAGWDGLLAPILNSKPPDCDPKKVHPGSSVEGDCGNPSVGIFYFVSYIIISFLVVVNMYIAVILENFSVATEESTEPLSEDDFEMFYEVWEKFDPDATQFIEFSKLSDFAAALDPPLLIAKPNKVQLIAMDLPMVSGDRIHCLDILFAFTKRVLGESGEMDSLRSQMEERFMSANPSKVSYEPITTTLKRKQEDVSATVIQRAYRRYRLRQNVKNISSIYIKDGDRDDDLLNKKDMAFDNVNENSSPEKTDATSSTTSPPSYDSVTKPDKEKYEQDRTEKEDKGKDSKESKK
# EXPERIMENTAL_DETAILS: Whole-cell patch-clamp, HEK293 cells stably expressing human Nav1.7 with GFP or FGF13-GFP
# RUN_CONDITIONS: HEK-Nav1.7 coexpressing FGF13-GFP, Fig 1F; read-out: IC50, reversal of FGF13-induced increase in INa density
Residues, ends and D or L forms follow the SMILES beside them. *: point of attachment. Cbz = O=C(OCc1ccccc1)*; OtBu = CC(C)(C)O*
READOUT_KIND: pIC50
pIC50 here is simply -log10 of the concentration when that concentration is written in mol/L.

IN: Any idea what its pIC50 is? The compound is COC(=O)[C@@H](NC(=O)[C@H](CCC(=O)OC(C)(C)C)NC(=O)[C@H](CC(C)C)NC(=O)[C@@H]1CCCN1C(=O)OCc1ccccc1)C(C)C [PW164] (Cbz-PLE(OtBu)V-OMe)
OUT: 5.17

###

Residues, ends and D or L forms follow the SMILES beside them. *: point of attachment. Cbz = O=C(OCc1ccccc1)*; NHPh = c1ccc(N*)cc1; OtBu = CC(C)(C)O*
Record set of Kd for target or system FGF13 (Homo sapiens, UniProt Q92913).
Answer in µM, number only, no unit symbol.

* COC(=O)[C@@H](NC(=O)[C@H](CCC(=O)OC(C)(C)C)NC(=O)[C@H](CC(C)C)NC(=O)[C@@H]1CCCN1C(=O)OCc1ccccc1)C(C)C [PW164] (Cbz-PLE(OtBu)V-OMe) | 21

We now examine a further molecule.
IN: API: value(readout=Kd, system=FGF13 (Homo sapiens, UniProt Q92913)) for record CC(=O)N[C@@H](Cc1ccccc1)C(=O)N[C@@H](CC(C)C)C(=O)N1CCC[C@H]1C(=O)N[C@@H](CCCCN)C(=O)Nc1ccccc1 [ZL192] (Ac-FLPK-NHPh)
OUT: 4

Data credit: paper PMC12259270
